Observed pKi, system 5-hydroxytryptamine receptor 6 (Homo sapiens, UniProt P50406).
Just the number, please; pKi means minus log10 of the concentration in mol/L.

Inquiry: 5-hydroxytryptamine receptor 6 (Homo sapiens, UniProt P50406) / pKi / CCN1CCN(c2cn(S(=O)(=O)c3ccc(C(C)C)cc3)c3ccccc23)CC1 : value?
Reply text: 8.07

Inquiry: // map CC(C)c1ccc(S(=O)(=O)n2cc(N3CCN(C)CC3)c3cc(Br)ccc32)cc1 to recorded pKi (system: 5-hydroxytryptamine receptor 6 (Homo sapiens, UniProt P50406))
Sequence (P50406 whole entry): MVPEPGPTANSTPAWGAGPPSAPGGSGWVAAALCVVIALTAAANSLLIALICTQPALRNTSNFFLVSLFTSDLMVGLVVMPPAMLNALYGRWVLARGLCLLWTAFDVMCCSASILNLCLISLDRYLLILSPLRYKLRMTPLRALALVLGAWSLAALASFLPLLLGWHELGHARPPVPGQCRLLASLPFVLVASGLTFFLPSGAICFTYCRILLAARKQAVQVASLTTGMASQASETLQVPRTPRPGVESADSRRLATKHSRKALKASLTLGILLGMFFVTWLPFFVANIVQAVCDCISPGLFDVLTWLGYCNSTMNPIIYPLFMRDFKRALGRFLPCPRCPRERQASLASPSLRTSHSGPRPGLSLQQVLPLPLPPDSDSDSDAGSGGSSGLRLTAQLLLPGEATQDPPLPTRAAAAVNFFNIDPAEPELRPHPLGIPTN
Reply text: 7.63

Inquiry: Form entry - test system: 5-hydroxytryptamine receptor 6 (Homo sapiens, UniProt P50406); read-out: pKi; compound: CN1CCN(c2cn(S(=O)(=O)c3ccc(F)cc3)c3ccccc23)CC1
Reply text: 7.93

Inquiry: Recorded pKi for CN1CCN(c2cn(S(=O)(=O)c3ccccc3Br)c3cc(Cl)ccc23)CC1 with 5-hydroxytryptamine receptor 6 (Homo sapiens, UniProt P50406), please?
Reply text: 7.52

Inquiry: Lookup: pKi / 5-hydroxytryptamine receptor 6 (Homo sapiens, UniProt P50406) / CCN1CCN(c2cn(S(=O)(=O)c3cc(OC)ccc3OC)c3cc(Cl)ccc23)CC1
Reply text: 7.20

Inquiry: Param readout= pKi; system= 5-hydroxytryptamine receptor 6 (Homo sapiens, UniProt P50406); entry= CN1CCN(c2cn(S(=O)(=O)c3cccc(Cl)c3)c3ccc(Br)cc23)CC1 ; returns value.
Reply text: 8.11

Inquiry: Query pKi on 5-hydroxytryptamine receptor 6 (Homo sapiens, UniProt P50406) for CN1CCN(c2cn(S(=O)(=O)c3ccc(F)cc3)c3ccc(Br)cc23)CC1
Reply text: 8.04

Inquiry: Hello, I am looking for reported pKi with 5-hydroxytryptamine receptor 6 (Homo sapiens, UniProt P50406) for CC(C)c1ccc(S(=O)(=O)n2cc(N3CCN(C)CC3)c3ccc(Cl)cc32)cc1 . Could you help?
Reply text: 7.26

Inquiry: What value of pKi on 5-hydroxytryptamine receptor 6 (Homo sapiens, UniProt P50406) does CCN1CCN(c2cn(S(=O)(=O)c3ccc(C(C)C)cc3)c3ccc(Cl)cc23)CC1 have?
Reply text: 7.52

====

Protocol summary: Clearance in Wistar rat at 5 mg/kg, po
Format: ADME, organism-based
Parameters: dose 5 mg/kg, route oral
Condition info: in vivo
Observed property: CL/F
Hey, just the number and the unit after it is fine.

Inquiry: So what does the record say about CL/F for CC(C)c1ccc(S(=O)(=O)n2cc(N3CCN(C)CC3)c3ccccc32)cc1 ?
Reply text: 2200 mL/min/kg

====

Test system: Cytochrome P450 3A4 (Homo sapiens, UniProt P08684)
Sequence (P08684 whole entry): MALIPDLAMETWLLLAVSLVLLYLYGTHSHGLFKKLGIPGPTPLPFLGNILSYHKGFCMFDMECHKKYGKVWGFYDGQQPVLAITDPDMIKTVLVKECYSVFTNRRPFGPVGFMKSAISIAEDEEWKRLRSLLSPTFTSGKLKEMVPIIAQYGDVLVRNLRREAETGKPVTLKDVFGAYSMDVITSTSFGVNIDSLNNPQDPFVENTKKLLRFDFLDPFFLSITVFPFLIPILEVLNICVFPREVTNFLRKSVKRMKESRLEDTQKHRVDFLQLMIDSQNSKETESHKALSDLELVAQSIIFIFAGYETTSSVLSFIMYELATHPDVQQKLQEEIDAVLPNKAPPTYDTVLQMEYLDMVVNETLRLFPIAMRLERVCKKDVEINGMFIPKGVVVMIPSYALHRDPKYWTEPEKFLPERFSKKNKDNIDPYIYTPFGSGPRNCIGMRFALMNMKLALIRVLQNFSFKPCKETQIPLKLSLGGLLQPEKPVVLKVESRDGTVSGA
Observed property: IC50

Inquiry: Lookup: IC50 / Cytochrome P450 3A4 (Homo sapiens, UniProt P08684) / CN1CCN(c2cn(S(=O)(=O)c3ccc(F)cc3)c3ccc(Br)cc23)CC1
Reply text: 4.61 µM

====

Protocol summary: Oral bioavailability in Wistar rat at 5 mg/kg
Type: ADME, organism-based
Condition info: in vivo
Observed property: bioavailability (%)
Record the value in %, omitting the unit from your answer.

Inquiry: Item CC(C)c1ccc(S(=O)(=O)n2cc(N3CCN(C)CC3)c3ccccc32)cc1 has what recorded bioavailability?
Reply text: 8

====

Protocol summary: Apparent volume of distribution in Wistar rat at 5 mg/kg, iv
Type: ADME, organism-based
Parameters: dose 5 mg/kg, route intravenous
Condition info: in vivo, read-out: Vz
Observed property: Vd (L/kg)
Write it as a number; the unit L/kg goes unstated.

Inquiry: Query (compound): CC(C)c1ccc(S(=O)(=O)n2cc(N3CCN(C)CC3)c3ccccc32)cc1 ; field requested: Vd
Reply text: 51.8

Ref: ChEMBL document CHEMBL1641587
